experiment: binders of probe aHhip on microarray, primary screen, stem cell growth factor project, biochemical, small-molecule microarray, fluorescence 635/667 (AID 1087); details: higher = more signal;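 further: score merges spot fluorescence at 667nm with spot signal to noise ratio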
measure: composite z-score

# compound, experimental-result
rows = [
    ("CCOC(=O)C1=CCC(c2cc3ccccc3[nH]2)N(CCN2CC(C(=O)OCC)=CCC2c2cc3ccccc3[nH]2)C1 (configuration not stated)", -0.361),
    ("C[C@@H]1ON(c2ccc(I)cc2)[C@H](c2cccc(NC(=O)OCC3c4ccccc4-c4ccccc43)c2)[C@H]1C(=O)N1C(=O)OC[C@H]1Cc1ccccc1", 0.132),
    ("CC1CC/C=C\\[C@H]2OC34C=CCN(CCN5CCOCC5)C(=O)[C@H]3N(CCCO)C(=O)[C@@H]4C2C(=O)O1 (some centres not stated)", -0.0994),
    ("COC(=O)[C@@]1(Cc2ccccc2)[C@H]2c3cc(C(=O)N(C)C)n(CCO)c3C[C@H]2CN1C(=O)c1ccccc1", -0.418),
    ("CN(C)CCCC[C@@H]1NC(=O)[C@@H]2C[C@H](C(=O)NCCCCCN)[C@H](c3cccc(OCCO)c3)N2C1=O", 0.0722),
    ("C=CCC(OC(C)=O)[C@@H]1[C@@H](N(Cc2ccc(-c3cccc(C(F)(F)F)c3)o2)C(=O)Cc2ccc(F)cc2)c2cc(OCCCO)ccc2N1C(=O)Cc1ccc2ccccc2c1 (some centres not stated)", -0.212),
    ("OCCCC1=CC(c2ccc(CN3CCCC3)cc2)N(Cc2cccc(OC(F)(F)F)c2)CC1 (configuration not stated)", -0.236),
]

----------
target: Dihydroorotate dehydrogenase (quinone), mitochondrial (Plasmodium falciparum (isolate 3D7)); assay: inhibition of P. falciparum DHODH – biochemical, C-terminal His tag, absorbance 600 nm, primary screen (AID 1175); details: PfDHODH enzyme, DCIP absorbance 600 nm; higher = more signal, called active from +8 up or from −8 down;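 further: recombinant parasite enzyme with a five histidine tag at its C terminus; test concentration not given here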
measure: composite z-score

# compound, measure, experimental-result
records = [
    ("COCCOC(=O)N1C(=O)[C@@]2(c3cc(C#CCC(C(=O)OC)C(=O)OC)ccc31)[C@H](c1ccc(O)cc1)N1[C@H](c3ccccc3)[C@H](c3ccccc3)OC(=O)[C@H]1[C@@H]2C(=O)Nc1nc2ccccc2s1", "composite z-score", -1),
    ("O=C1C[C@]2(c3ccc([N+](=O)[O-])cc3)C(=O)N(C3CC3)c3cc(CO)ccc3[C@H]2N1C1CCCCC1", "composite z-score", -3.75),
    ("C=CCOC(=O)[C@@H]1[C@H]2C(=O)O[C@H](c3ccccc3)[C@H](c3ccccc3)N2[C@H](c2ccc(OCCOC(=O)[C@H]3C[C@H]4C(=O)N[C@@H](CCCCN(C)C)C(=O)N4[C@H]3c3ccc(O)cc3)cc2)[C@@]12C(=O)Nc1ccc(I)cc12", "composite z-score", -2.47),
    ("COC(=O)C1(Cc2ccccc2)C=C2C(=C(C)C(=O)C2C)CN1 (stereo unspecified)", "composite z-score", -1.98),
    ("O=C1NC(=O)C2C1C=CC(C(O)c1ccc([N+](=O)[O-])cc1)N2Nc1ccccn1 (stereo unspecified)", "composite z-score", 0.622),
    ("CO[C@H]1O[C@H](CO)[C@@H](OC(=O)Nc2ccccc2-c2ccccc2)[C@H](OC(=O)Nc2ccccc2)[C@H]1OC(=O)Nc1ccccc1", "composite z-score", -0.0626),
]

----------
assay: compound effects on multiple myeloma cell viability – MM1S, calcein-AM fluorescence, 48 h, basal, profiling panel (AID 1165); conditions: higher = more signal; further: test concentration not given here
// reported z-score for each item listed
measure: z-score

# molecule, experimental-result
rows = [
    ("CC1CC/C=C\\[C@H]2OC34C=CCN(Cn5nnc6ccccc65)C(=O)[C@H]3N(CCCCCCO)C(=O)[C@@H]4C2C(=O)O1 (stereo partly drawn)", 1.95),
    ("NC(=O)N1C(=O)C2C(C1=O)C1C=C(CCCO)C2C(c2ccc(CN3CCCC3)cc2)N1Cc1cc2c(cc1Br)OCO2 (stereo not drawn)", -0.0321),
    ("CN(C)CCCNC(=O)[C@@]1(C)c2ccccc2C(=O)N(Cc2ccc(OC(F)(F)F)cc2)[C@H]1c1ccc(CO)cc1", -0.0385),
    ("COC(=O)[C@@]1(Cc2ccc(OC)cc2)[C@H]2c3cc(C(=O)N4CCCC4)n(CCn4cc([N+](=O)[O-])nc4C)c3C[C@H]2CN1C(=O)c1ccccc1", -0.0622),
    ("CC(C)NC(=O)[C@@]1(C)c2ccccc2C(=O)N(Cc2ccccc2)[C@H]1c1ccc(CO)cc1", 0.579),
    ("COCCOC(=O)N1C(=O)[C@@]2(c3cc(C#CCC(C(=O)OC)C(=O)OC)ccc31)[C@H](C(=O)Nc1nc3ccccc3s1)[C@H]1C(=O)O[C@H](c3ccccc3)[C@H](c3ccccc3)N1[C@@H]2c1ccc(O)cc1", 0.0422),
    ("C=C(COC)C(=O)CC[C@H](OC(=O)c1cccnc1)c1ccc(OCCO)cc1", -1.93),
    ("COC(=O)[C@@]1(Cc2ccc(F)cc2)[C@H]2c3cc(C(=O)N(C)C)n(CCc4ccc(O)c(O)c4)c3C[C@H]2CN1C(=O)c1ccccc1", 0.287),
    ("[N-]=[N+]=Nc1ccccc1C[C@]1(C(=O)N2CCOCC2)N=C(c2ccc(OCCCO)cc2)O[C@H]1c1ccccc1N=[N+]=[N-]", -1.77),
    ("C=C(CCCC)/C(=C/C[C@H](OC(C)=O)c1cccc(OCCO)c1)c1cnc2ccccc2c1", -3.13),
    ("CCCCC(O)C1C=CC2C(=O)N(c3ccccc3)C(=O)C2N1Nc1ccccc1 (stereo not drawn)", 0.225),
    ("CC(=O)c1ccc(C(O)C2C=CC3C(=O)N(c4ccccc4)C(=O)C3N2Nc2ccc(C(C)C)cc2)cc1 (stereo not drawn)", -1.1),
    ("CN(C)CCCCNC(=O)[C@H]1C[C@H]2C(=O)NCC(=O)N2[C@H]1c1ccc(O)cc1", 0.34),
    ("C=CCOC(=O)[C@H]1[C@@H]2C(=O)O[C@@H](c3ccccc3)[C@@H](c3ccccc3)N2[C@@H](c2ccc(OCCOC(=O)[C@@H]3C[C@@H]4C(=O)N[C@@H](CCCC[N+](C)(C)C)C(=O)N4[C@@H]3c3ccc(O)cc3)cc2)[C@]12C(=O)Nc1ccc(I)cc12", -2.9),
    ("C=CCN1C(=O)[C@]2(O[C@H](CCn3cc([C@H](O)c4ccccc4)nn3)[C@@H]([Si](C)(C)c3ccc(OC)cc3)[C@@H]2C)c2cc(NC(=O)c3ccc(OC)cc3)ccc21", -2.74),
    ("COC(=O)C(CC#Cc1ccc2c(c1)[C@]1(C(=O)N2)[C@H](c2ccc(OCCO)cc2)N2[C@H](c3ccccc3)[C@H](c3ccccc3)OC(=O)[C@H]2[C@@H]1C(=O)N1CCCCCCC1)C(=O)OC", 0.491),
    ("O=C1[C@@H]2[C@@H](CC(COc3ccccc3)=C([C@H](O)CCc3ccccc3)[C@@H]2CO)C(=O)N1Cc1ccccc1", -3.23),
    ("NC(=O)N1C(=O)C2C(C1=O)C1C=C(CCCO)C2C(C2CC2)N1Cc1sc2ccccc2c1Cl (stereo not drawn)", -2.97),
    ("O=C1N(CCS(=O)(=O)c2ccccc2)c2ccccc2C[C@]12N=C(c1ccc(OCCCO)cc1)O[C@@H]2c1ccccc1", -0.967),
    ("O=C1C[C@@](C(=O)NC2CC2)(c2ccc([N+](=O)[O-])cc2)[C@@H](c2ccc(CO)cc2)N1C1CCCCC1", -0.177),
    ("CN(C)CCCNC(=O)[C@@H]1c2ccccc2C(=O)N(Cc2ccccc2C(F)(F)F)[C@H]1c1ccc(CO)cc1", 0.353),
    ("Cc1ccc(N2C(=O)c3ccccc3[C@](C)(C(=O)NCCCN(C)C)[C@@H]2c2ccc(CO)cc2)nc1", -0.629),
    ("CCCCCC1=C2CNC(Cc3ccccc3)(C(=O)OC)C=C2C(C)C1=O (stereo not drawn)", -2.69),
    ("COC(=O)[C@@]1(Cc2ccc(F)cc2)[C@H]2c3cc(C(=O)N4CCCC4)n(Cc4cc(F)cc5c4OCOC5)c3C[C@H]2CN1C(=O)c1ccccc1", -1.54),
    ("C=C(CCCC)C(=O)CC[C@H](OC(=O)c1ccccc1-c1ccccc1C(=O)O)c1ccc(OCCO)cc1", -3.19),
    ("COCCCNC(=O)[C@@]1(Sc2ccc(C)cc2)CC(=O)N(Cc2ccccc2C(F)(F)F)[C@@H]1c1ccc(CO)cc1I", -3.18),
    ("C=CC[C@@]1(C(=O)N(C)C)N=C(c2ccc(OCCCO)cc2)O[C@@H]1c1ccccc1CN=[N+]=[N-]", -1.81),
    ("CO[C@H]1O[C@H](CO)[C@@H](OC(=O)Nc2ccc3c(c2)OCO3)[C@H](OC(=O)Nc2ccccc2-c2ccccc2)[C@H]1OC(=O)Nc1ccccc1-c1ccccc1", -3.34),
]
